Assay: an = ratio of the nth substance listed
Settings: 323 K; 100 kPa; Liquid; Frequency=5 MHz; Single path-length method; a2 = 2
Measured Metric: speed of sound (m/s)
Supply the numeric figure in m/s, leaving out any unit text.

Sample C[N+](C)(C)CCO.[Cl-] [choline chloride] + OCC(O)CO — what was its speed of sound?
1923

Name the recorded speed of sound for C[N+](C)(C)CCO.[Cl-] [choline chloride] + OCCO .
1826

Fill in the blank: the reported speed of sound of CCCCCCCC[N+](CCCCCCCC)(CCCCCCCC)CCCCCCCC.[Br-] [tetraoctylammonium bromide] + CCCCCCCCCC(=O)O is ____.
1317

Fill blank: measured speed of sound of the molecule CCCCCCCC[N+](C)(CCCCCCCC)CCCCCCCC.[Br-] [methyltrioctylammonium bromide] + CCCCCCCCCC(=O)O is ____.
1312

---

Experiment: an = ratio of the nth substance listed
Conditions: 318 K; 100 kPa; Liquid; Vibrating tube method; a2 = 2
So I've got a bunch of molecules here, and I need their mass density values.
Your answer is read as kg/m3, so omit the unit and give the number.

Which mass density is reported for this molecule? C[N+](C)(C)CCO.[Cl-] [choline chloride] + OCCO
1102.6

Can you look up the measured mass density of CCCCCCCC[N+](C)(CCCCCCCC)CCCCCCCC.[Br-] [methyltrioctylammonium bromide] + CCCCCCCCCC(=O)O for me?
928.3

Any idea what its mass density is? The molecule is CCCCCCCC[N+](CCCCCCCC)(CCCCCCCC)CCCCCCCC.[Br-] [tetraoctylammonium bromide] + CCCCCCCCCC(=O)O
916.9

Bench note: what mass density did C[N+](C)(C)CCO.[Cl-] [choline chloride] + OCC(O)CO show?
1179.3

---

Assay: an = ratio of the nth substance listed
Settings: 313 K; 100 kPa; Liquid; Falling or rolling sphere viscometry; a2 = 2
Measured Metric: viscosity (mPa·s)
Numbers only; they are read as mPa·s.

# query: viscosity of entry CCCCCCCC[N+](C)(CCCCCCCC)CCCCCCCC.[Br-] [methyltrioctylammonium bromide] + CCCCCCCCCC(=O)O
226.2

Requested field: viscosity. Item: C[N+](C)(C)CCO.[Cl-] [choline chloride] + OCCO
23.6

If you can, please state the reported viscosity value of C[N+](C)(C)CCO.[Cl-] [choline chloride] + OCC(O)CO .
133.4

Which viscosity value is on record for CCCCCCCC[N+](CCCCCCCC)(CCCCCCCC)CCCCCCCC.[Br-] [tetraoctylammonium bromide] + CCCCCCCCCC(=O)O ?
264.3

---

Experiment: an = ratio of the nth substance listed
Settings: 293 K; 100 kPa; Liquid; Vibrating tube method; a2 = 2
Hi there, I'd appreciate the recorded mass density for every entry that follows.
Your answer should be a plain number; it is taken to be in kg/m3.

Which mass density is listed for C[N+](C)(C)CCO.[Cl-] [choline chloride] + OCC(O)CO ?
1194.3

Name the recorded mass density for CCCCCCCC[N+](C)(CCCCCCCC)CCCCCCCC.[Br-] [methyltrioctylammonium bromide] + CCCCCCCCCC(=O)O .
945.4

Value lookup for mass density; key = CCCCCCCC[N+](CCCCCCCC)(CCCCCCCC)CCCCCCCC.[Br-] [tetraoctylammonium bromide] + CCCCCCCCCC(=O)O
933.7

Consider the compound shown here: C[N+](C)(C)CCO.[Cl-] [choline chloride] + OCCO What is its recorded mass density?
1117.1
